Sourced from paper PMC5540273

Quick list: %Inh per entry.
- Test system: MKNK1;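 further: KINOMEscan kinase panel screen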
- Measurement Parameters: concentration: 1 μM, replicates: in singlicate; n = 1
Supply the numeric figure in %, leaving out any unit text.

Use the examples below as a reference point.
* NC(=O)c1sc(-n2cnc3ccccc32)cc1OCc1ccccc1F | 10
* N#Cc1ccc(Oc2ccc(Nc3ncnc4cc[nH]c34)cc2Cl)cc1 | 0
* COC(=O)c1cccc(NC(=O)NCCNc2ccnc(Nc3ccc(F)cc3)n2)c1 | 7
* CCn1c(-c2ccncc2)nc2cnccc21 | 5

Query: Give the measured %Inh of Fc1ccc(Nc2nccc(-c3c(-c4ccc(Cl)cc4)nn4ncccc34)n2)cc1F .
Reply: 0

Query: Give the measured %Inh of Cl.Cl.c1ccc(-c2cc3ccncc3cc2OC2CCNCC2)cc1 .
Reply: 29
